QUANTITY NAME: IC50 (nM)
The response must be a number in nM with no trailing unit.

input: # query: IC50 | item O=C(CN1CC=CCP1(=O)c1ccc(Oc2ccccc2)cc1)NO (racemic) | system: MMP-9 (Homo sapiens, UniProt P14780)
output: 1

input: # query: IC50 | item O=C(CN1CC=CCCP1(=O)c1ccc(Oc2ccccc2)cc1)NO (racemic) | system: MMP-9 (Homo sapiens, UniProt P14780)
output: 6.31

input: # query: IC50 | item O=C(CN1CC=CCP1(=O)c1ccc(Oc2ccc(Cl)cc2)cc1)NO (racemic) | system: MMP-9 (Homo sapiens, UniProt P14780)
output: 0.794
